- Test Target: Broad substrate specificity ATP-binding cassette transporter ABCG2 (Homo sapiens)
- Sequence (Q9UNQ0 whole entry): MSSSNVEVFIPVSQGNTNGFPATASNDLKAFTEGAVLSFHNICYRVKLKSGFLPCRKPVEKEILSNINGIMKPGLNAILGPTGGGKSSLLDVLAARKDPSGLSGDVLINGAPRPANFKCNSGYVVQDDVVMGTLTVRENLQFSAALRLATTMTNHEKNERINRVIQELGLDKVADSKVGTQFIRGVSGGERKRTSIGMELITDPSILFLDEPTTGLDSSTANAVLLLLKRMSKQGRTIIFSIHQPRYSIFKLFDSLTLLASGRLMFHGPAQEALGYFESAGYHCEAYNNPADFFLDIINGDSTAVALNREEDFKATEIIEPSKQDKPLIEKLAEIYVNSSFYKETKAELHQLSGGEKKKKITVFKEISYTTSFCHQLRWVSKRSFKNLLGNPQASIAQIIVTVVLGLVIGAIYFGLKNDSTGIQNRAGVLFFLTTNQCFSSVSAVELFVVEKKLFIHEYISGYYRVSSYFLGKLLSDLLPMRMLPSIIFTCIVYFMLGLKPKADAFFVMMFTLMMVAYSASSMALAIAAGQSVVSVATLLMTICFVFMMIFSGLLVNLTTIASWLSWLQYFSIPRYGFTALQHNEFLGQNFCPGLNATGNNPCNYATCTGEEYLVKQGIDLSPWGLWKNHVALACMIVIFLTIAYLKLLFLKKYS
- Assay Comment: Inhibition of ABCG2 (unknown origin) transfected in HEK293 cells assessed as inhibition of mitoxantrone efflux at 5 uM after 30 mins in presence of 0.02 uM Ko143 by flow cytometry
- Assay type: cell-based
Observation Type: EC50 (nM)

>  <Molecule Smiles>
COc1cccc(OC)c1/C=C/C(=O)c1ccc(C(=O)/C=C/c2c(OC)cccc2OC)cc1

>  <Measurement>
126

$$$$

----------
- Test Target: ABCG2 (Homo sapiens)
- Sequence (Q9UNQ0 whole entry): as above
- Assay Comment: Inhibition of ABCG2 (unknown origin) transfected in HEK293 cells assessed as inhibition of mitoxantrone efflux at 5 uM after 30 mins by flow cytometry relative to control
- Assay type: cell-based
- Experimental Conditions: HEK293 cells transfected with ABCG2, probe mitoxantrone
# cutoff 40% applies to inhibition at 0.5 h, 5 µM; >= gives true (1), < gives false (0)

>  <Molecule Smiles>
O=C(/C=C/c1ccc2c(c1)OCO2)c1ccc(C(=O)/C=C/c2ccc3c(c2)OCO3)cc1

>  <Class>
false (0)

$$$$
>  <Molecule Smiles>
COc1ccc(/C=C/C(=O)c2ccc(C(=O)/C=C/c3ccc(OC)c(OC)c3)cc2)cc1OC

>  <Class>
true (1)

$$$$
>  <Molecule Smiles>
COc1ccc(C(=O)/C=C/c2ccc(/C=C/C(=O)c3ccc(OC)cc3OC)cc2)c(OC)c1

>  <Class>
true (1)

$$$$
>  <Molecule Smiles>
O=C(/C=C/c1ccc(/C=C/C(=O)c2ccc3c(c2)OCO3)cc1)c1ccc2c(c1)OCO2

>  <Class>
false (0)

$$$$
>  <Molecule Smiles>
COc1cc(C(=O)/C=C/c2ccc(/C=C/C(=O)c3cc(OC)c(OC)c(OC)c3)cc2)cc(OC)c1OC

>  <Class>
true (1)

$$$$
>  <Molecule Smiles>
O=C(/C=C/c1ccc2ccccc2c1)c1ccc(C(=O)/C=C/c2ccc3ccccc3c2)cc1

>  <Class>
false (0)

$$$$
>  <Molecule Smiles>
COc1ccc(OC)c(C(=O)/C=C/c2ccc(/C=C/C(=O)c3cc(OC)ccc3OC)cc2)c1

>  <Class>
true (1)

$$$$
>  <Molecule Smiles>
O=C(O)c1ccc(C(=O)/C=C/c2ccc(/C=C/C(=O)c3ccc(C(=O)O)cc3)cc2)cc1

>  <Class>
false (0)

$$$$
